Target: DNA polymerase beta (polβ) (UniProt P06746 1-335)
Test: BLI; BLI (Octet QKe), 20 °C: polβ, APE1, LIGIIIα in 20 mM Hepes pH 7.4, 200 mM NaCl, 0.5% BSA, 0.05% Tween 20; LIG1 in 50 mM Tris-HCl pH 7.5, 100 mM KCl, 1 mM DTT; n
pKd: −log10 of the molar value.
assay-endpoint: pKd

// sample nick DNA (3'-dG:C) (dsDNA, 5'-phosphate on strand 2 at the nick; 3'-OH on strand 1) DNA 1: CATGGGCGGCATGAACCG DNA 2: GAGGCCCATCCTCACC DNA 3: GGTGAGGATGGGCCTCCGGTTCATGCCGCCCATG , its pKd was ~7.70

Cited source for all entries: paper PMC11176775
